# Tested on: NCI/ADR-RES ovarian
# protocol.description: NCI-60 one-dose screen, 48 h
# measurement.parameters: 10 µM unless noted
About 83,000 compounds went through this panel and 20% of them were active in at least one assay; those are over-represented in the sample as a whole. Calls of active or inactive are those of the source. How the source made its calls: active means growth percent below 10; inactive means the rest.
// one of yes for active, no for inactive, no free text

Input line: Identify the outcome logged in this assay for the compound shown: "O=C(Nc1ccc(-c2nc3ccc(NC(=O)c4ccc(Cl)cc4)cc3[nH]2)cc1)c1ccc(Cl)cc1"
Output line: no

Input line: Identify the outcome logged in this assay for the compound shown: "COc1c(B(O)O)cccc1-c1nc2ccc3n[nH]c(F)c3c2c2c1CCCC2"
Output line: no

Input line: Identify the outcome logged in this assay for the compound shown: "COc1ccc(Nc2cc(C)nc(NCc3ccccc3)n2)cc1"
Output line: no

Input line: Identify the outcome logged in this assay for the compound shown: "COc1ccc2sc3c(NCCCN)nc4ccccc4c3c(=O)c2c1"
Output line: no

Input line: Identify the outcome logged in this assay for the compound shown: "CNCCNc1nc2ccccc2c2c(=O)c3cccc(OC)c3sc12"
Output line: no

Input line: Identify the outcome logged in this assay for the compound shown: "O=C(/C=C/c1cccc(Cl)c1)OCc1ccc2cc1OCC#C/C=C\C#CCO2"
Output line: no

Input line: Identify the outcome logged in this assay for the compound shown: "CCN(CC)CCNC(=O)C(Cl)=C1C(Cl)=C(Cl)C(Cl)=C1Cl"
Output line: no

Input line: Identify the outcome logged in this assay for the compound shown: "Nc1ccc(-n2c(=O)oc3ccc(Cl)cc3c2=O)c(Cl)c1"
Output line: yes

Input line: Identify the outcome logged in this assay for the compound shown: "COc1ccc(-c2cc(=O)c3c(OC)c4ccoc4c(/C=C/C=O)c3o2)cc1"
Output line: no

Input line: Identify the outcome logged in this assay for the compound shown: "COC(=O)/C(CCC=C(C)C)=C1\[C@@H](OC(C)=O)C[C@@]2(C)[C@H]1C[C@@H](O)[C@H]1[C@@]3(C)CC[C@H](NCCO)[C@@H](C)[C@@H]3CC[C@@]12C"
Output line: no

Input line: Identify the outcome logged in this assay for the compound shown: "Cc1ccc(NC2=CC(=O)C(=O)c3ccccc32)c(C)c1"
Output line: no

Input line: Identify the outcome logged in this assay for the compound shown: "CCOC(=O)c1c2c(c(C)n1Cc1ccc(OC)cc1)-c1oncc1CC2"
Output line: no

Input line: Identify the outcome logged in this assay for the compound shown: "Cc1nc(Nc2ccccn2)sc1C(=O)/C=C/c1ccc(Cl)cc1"
Output line: yes

Input line: Identify the outcome logged in this assay for the compound shown: "COc1ccc(CCN2C(=O)CCSC2=S)cc1OC"
Output line: no

Input line: Identify the outcome logged in this assay for the compound shown: "CN(C)CCCNCc1ccc(-c2ccc(F)c(Cl)c2)o1"
Output line: no

Input line: Identify the outcome logged in this assay for the compound shown: Cc1nn(-c2nc3ccccc3[nH]2)c2c1C(c1ccc(OCC(N)=O)cc1)CC(=O)N2 (stereo not given)
Output line: no

Input line: Identify the outcome logged in this assay for the compound shown: "O=C(/C=C/c1ccccc1)c1ccc(Nc2nc(NCCO)nc(Nc3ccc(Cl)cc3)n2)cc1"
Output line: no

Input line: Identify the outcome logged in this assay for the compound shown: "CCOC(=O)c1cc2c(n1Cc1ccccc1)-c1oncc1CCC2"
Output line: no

Input line: Identify the outcome logged in this assay for the compound shown: "CCCCN1CCN(c2ccc3nc(-c4ccc5nc(-c6ccc(OC)c(OC)c6)[nH]c5c4)[nH]c3c2)CC1"
Output line: no

Input line: Identify the outcome logged in this assay for the compound shown: "COc1cc([C@@H]2NC(=O)NC(C)=C2C(=O)Nc2nc(-c3ccc(Cl)cc3)cs2)ccc1O"
Output line: no

* * *

Provide the reported growth of each item.
# Test system: HCC-2998 colon
# protocol.description: NCI-60 one-dose screen, 48 h (100 = growth as untreated, 0 = no growth, -100 = all killed)
# measurement.parameters: 10 µM unless noted
This is part of a sample that, as a whole, favours compounds with a hit. Of some 83,000 tested, about 20% had one in any assay.
Enter your answer as a number in %; do not include the unit.

Input line: Any idea what growth was measured for "COc1ccc(CCN2C(=O)CCSC2=S)cc1" ?
Output line: 106

Input line: Any idea what growth was measured for "O=C1Nc2ccccc2/C1=C/c1cccs1" ?
Output line: 91.4

Input line: Any idea what growth was measured for "COc1ccc(/C=C2\N=C(c3ccccc3)N(c3ccc(-c4nc5ccc(C)cc5s4)cc3)C2=O)cc1" ?
Output line: 96

Input line: Any idea what growth was measured for COc1ccc(/C=c2\sc3n(c2=O)NC2C(N=3)N(C)C(=O)N2C)cc1 (stereo not given) ?
Output line: 108

Input line: Any idea what growth was measured for CCC1=C[C@]2(C3CC(=O)N(c4ccccc4)C3=O)CC(C(C)(C)C)C[C@@H]2[C@@H]2C(=O)N(c3ccccc3)C(=O)[C@H]12 (stereo not given in full) ?
Output line: 103

Input line: Any idea what growth was measured for "COc1cc([C@@H]2NC(=O)NC(C)=C2C(=O)Nc2nc(-c3ccc(Cl)cc3)cs2)ccc1O" ?
Output line: 104

Input line: Any idea what growth was measured for COc1ccc(-n2c(C(O)c3ccccc3)n[nH]c2=S)cc1 (stereo not given) ?
Output line: 106

Input line: Any idea what growth was measured for Cc1nn(-c2nc3ccccc3[nH]2)c2c1C(c1ccc(OCC(N)=O)cc1)CC(=O)N2 (stereo not given) ?
Output line: 122

Input line: Any idea what growth was measured for "O=c1oc2ccc(I)cc2c(=O)n1-c1ccc(F)cc1F" ?
Output line: 26

Input line: Any idea what growth was measured for "O=C1OC(c2ccccc2)(c2ccccc2)c2ccsc21" ?
Output line: 127

* * *

# System: MALME-3M melanoma
# protocol.description: NCI-60 one-dose screen, 48 h (100 = growth as untreated, 0 = no growth, -100 = all killed)
# measurement.parameters: 10 µM unless noted
# Procedure: Cells are grown in 96 well plates and exposed to the test compound for 48 hours. Compounds are tested at a single concentration, which is 10^-5 M for most compounds. The reported endpoint is percent growth (GI% or GIPRCNT), where numbers from 0 - 100% represent growth inhibition, and numbers from -100% - 0 represent cell death. For example, a value of 40 represents 60% growth inhibition. A value of 0 means no net growth occurred over the course of the experiment. […]
About 83,000 compounds went through this panel and 20% of them were active in at least one assay; those are over-represented in the sample as a whole.
Provide the reported growth of each item.
Enter your answer as a number in %; do not include the unit.

Input line: Any idea what growth was measured for CC1(C)CC2(C)OC2C2(C1)N=NC(=Nc1ccccc1)O2 (centres undefined) ?
Output line: 57.1

Input line: Any idea what growth was measured for "COc1cc(/C=C2\Oc3cc(OCCCN4CCCC4)ccc3C2=O)cc(OC)c1" ?
Output line: 93

Input line: Any idea what growth was measured for "COc1ccc2occ(C3=C(c4c[nH]c5ccccc45)C(=O)NC3=O)c2c1" ?
Output line: 46.7

Input line: Any idea what growth was measured for "C[C@@H](C(=O)NCCCC#Cc1cnc(Nc2ccc(C#N)cc2)nc1NC1CC1)N(C)C(=O)/C=C/CN(C)C" ?
Output line: 22.5

Input line: Any idea what growth was measured for O=C(c1nc2ccccc2[nH]1)C1C(c2ccc(F)cc2)C2CC3CCCCC3N2[C@@]12C(=O)Nc1ccc(Cl)cc12 (some centres undefined) ?
Output line: 42.6

Input line: Any idea what growth was measured for "COc1cc(/C=C2\CN(C)C/C(=C\c3cc(CN4CCCCC4)c(O)c(OC)c3)C2=O)cc(CN2CCCCC2)c1O" ?
Output line: 84.6

Input line: Any idea what growth was measured for "COc1ccc(-c2cn[nH]c2-c2ccc(OC)c(O)c2)cc1" ?
Output line: 98.6

Input line: Any idea what growth was measured for "CCC(C)(C)C(=O)O[C@H]1C[C@@H](C)C=C2C=C[C@H](C)[C@H](CC[C@@H]3CC=CC(=O)O3)[C@H]21" ?
Output line: 94.1

Input line: Any idea what growth was measured for "CN(C)CCCNCc1ccc(-c2ccc(F)c(Cl)c2)o1" ?
Output line: -57.7

* * *

# Test system: HCT-116 colon
# protocol.description: NCI-60 one-dose screen, 48 h
# measurement.parameters: 10 µM unless noted
About 83,000 compounds went through this panel and 20% of them were active in at least one assay; those are over-represented in the sample as a whole. Active and inactive are the calls of the source. How the source made its calls: active means growth percent below 10; inactive means the rest.
// one of class 1 = active, class 0 = inactive, no free text

Input line: Identify the outcome logged in this assay for the molecule shown: "O=NN(Cc1cccnc1)C(=O)NC1CCCCC1"
Output line: class 0

Input line: Identify the outcome logged in this assay for the molecule shown: "O=C(Nc1ccc(-c2nc3ccc(NC(=O)c4ccc(Cl)cc4)cc3[nH]2)cc1)c1ccc(Cl)cc1"
Output line: class 1

Input line: Identify the outcome logged in this assay for the molecule shown: "CN(CCc1ccccc1)C(=S)N(C(=O)c1ccc([N+](=O)[O-])cc1)c1ccc(Cl)cc1"
Output line: class 0

Input line: Identify the outcome logged in this assay for the molecule shown: "O=C1/C(=C/c2ccc(O)cc2)COc2ccc(O)c(O)c21"
Output line: class 0

Input line: Identify the outcome logged in this assay for the molecule shown: "CC(C)Cn1c2c(c(=S)[nH]c1=O)CCC2"
Output line: class 0

Input line: Identify the outcome logged in this assay for the molecule shown: "Nc1n[nH]c2ccc([C@@H]3Nc4ccc5[nH]ncc5c4[C@H]4[C@H]5CCC(C5)[C@H]43)cc12"
Output line: class 1

Input line: Identify the outcome logged in this assay for the molecule shown: COc1ccc(/C=c2\sc3n(c2=O)NC2C(N=3)N(C)C(=O)N2C)cc1 (stereo not given)
Output line: class 0

Input line: Identify the outcome logged in this assay for the molecule shown: "C#CCn1cc(C=C2C(=O)NC(=O)NC2=O)c2cc(Cl)ccc21"
Output line: class 0

Input line: Identify the outcome logged in this assay for the molecule shown: "NCCNc1nc2ccc(F)cc2c2c(=O)c3cc(F)ccc3sc12"
Output line: class 1

Input line: Identify the outcome logged in this assay for the molecule shown: "O=C1c2cc(I)ccc2Oc2cc([N+](=O)[O-])ccc2N1c1ccc(Cl)cc1F"
Output line: class 0
